# credit: patent US9090593B2

# TGT: full length recombinant Pim-1 protein (Homo sapiens, UniProt P11309)
# Construct: by full length recombinant Pim-1, Pim-2, or Pim-3 protein; hexahistidine tag followed by a thrombin cleavage site (N); made in house; host or cells: Sf9 (baculovirus) or E. coli (pET28)
# Sequence (P11309 whole entry): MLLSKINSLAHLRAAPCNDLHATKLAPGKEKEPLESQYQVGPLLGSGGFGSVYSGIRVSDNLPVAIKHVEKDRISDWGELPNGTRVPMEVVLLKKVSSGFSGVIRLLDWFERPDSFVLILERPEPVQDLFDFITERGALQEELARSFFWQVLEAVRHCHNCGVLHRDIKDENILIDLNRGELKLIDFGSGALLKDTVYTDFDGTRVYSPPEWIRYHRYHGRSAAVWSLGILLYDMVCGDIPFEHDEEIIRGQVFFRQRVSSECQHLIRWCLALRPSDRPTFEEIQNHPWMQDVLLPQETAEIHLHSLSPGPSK
# ASSAY_METHOD_TEXT: Pim-1 enzyme assay (HTRF, phosphorylation of biotinylated-BAD (S112) peptide)
# Assay type: biochemical
# APPLIED_CONDITIONS: read-out: Pim_1_IC50
pIC50: −log10 of the molar value.
ASSAY_READOUT: pIC50

Study these solved cases before continuing.
>>> result_number("Fc1cccc(F)c1-c1ccc2[nH]nc(-c3cncc(SC4CCCNC4)n3)c2c1 (single isomer, unassigned) [Example 414]")
8.15
>>> result_number("Nc1cncc(-c2ccc3[nH]nc(-c4cncc(OCCF)n4)c3c2)n1")
8.22
>>> result_number("c1cc2[nH]cc(-c3cncc(O[C@@H]4CCCNC4)n3)c2cc1-c1cnn(C2CC2)c1")
8.22
>>> result_number("O[C@@H]1CN(c2cncc(-c3n[nH]c4ccc(-c5c(F)cccc5F)cc34)n2)CC[C@@H]1O (racemic) [Example 248]")
7.77

I = Cc1n[nH]c2ncc(-c3ccc4[nH]cc(-c5cncc(O[C@@H]6CCCNC6)n5)c4c3)cc12
II = CC(C)C1CCNCC1Oc1cncc(-c2n[nH]c3ccc(-c4c(F)cccc4F)cc23)n1 (single isomer, unassigned) [Example 395]
Returns: the argument ( I or II ) having the larger pIC50. Output the label that corresponds to your choice.
II

---

# TGT: full length recombinant Pim-1 protein (Homo sapiens)
# Construct: by full length recombinant Pim-1, Pim-2, or Pim-3 protein; hexahistidine tag followed by a thrombin cleavage site (N); made in house; host or cells: Sf9 (baculovirus) or E. coli (pET28)
# ASSAY_METHOD_TEXT: Pim-1 enzyme assay (HTRF, phosphorylation of biotinylated-BAD (S112) peptide)
# Type: biochemical
# APPLIED_CONDITIONS: enzyme assay, Pim-1; read-out: Pim_1_IC50
ASSAY_READOUT: IC50 (nM)

>>> result_number("COc1cncc(-c2ccc3[nH]nc(-c4cnc(N5CCC(N)CC5)s4)c3c2)c1")
9

P = COc1cccc(-c2ccc3[nH]nc(-c4cncc(N5CCC(N)CC5)n4)c3c2)n1
Q = c1ccc(-c2ccc3[nH]nc(-c4cncc(O[C@@H]5CCCNC5)n4)c3c2)cc1
Returns: the argument ( P or Q ) having the larger IC50. Output the label that corresponds to your choice.
P

---

# TGT: Pim-1 stably transfected into the U2OS human osteogenic sarcoma line (Homo sapiens)
# Construct: expressed in transfected cells; host or cells: U2OS human osteogenic sarcoma line
# ASSAY_METHOD_TEXT: Pim cell assay, phospho-BAD normalized against total BAD, U2OS stably transfected with Pim-1
# Assay type: cell-based
# APPLIED_CONDITIONS: U2OS cells stably transfected with Pim-1, phospho-BAD; high dose […]; read-out: Pim1_Cell_IC50
# Procedure: The cell lines used in the assay were generated by the stable transfection of either Pim-1 or Pim-2 into the U2OS human osteogenic sarcoma line. […] These prepared lysates were then assayed for phospho and total BAD according to the manufacturer's protocols (Meso Scale Diagnostics, Cat# K15103C-3 & # K15103D-3). The plates were read on the MSD Sector Imager 6000, and results were calculated according to the assay protocols ((% Phosphoprotein=((2×Phospho signal)/(Phospho signal+Total signal))×100)).
ASSAY_READOUT: IC50 (nM)

I = C[C@H]1CCNC[C@H]1Oc1cncc(-c2n[nH]c3ccc(-c4c(F)cccc4F)cc23)n1
II = NC1CCN(c2cncc(-c3n[nH]c4ccc(N5CCCC5=O)cc34)n2)CC1
III = COc1cc(-c2ccc3[nH]nc(-c4cncc(O[C@@H]5CCCNC5)n4)c3c2)ccn1
IV = CC(C)NC(=O)c1ccc(F)c(-c2ccc3[nH]nc(-c4cncc(N5CCC(N)CC5)n4)c3c2)c1
Given 4 compounds, produce a descending ranking by IC50. Give me the labels in the order the question wants.
II, IV, I, III

a = Fc1cccc(F)c1-c1ccc2[nH]cc(-c3cncc(OC4CCNCC4)n3)c2c1
b = NC1CCN(c2cncc(-c3n[nH]c4ccc(-c5cccc(O)c5)cc34)n2)CC1
Returns: the argument ( a or b ) having the larger IC50. Output the label that corresponds to your choice.
b

P = COc1cccc(-c2ccc3[nH]nc(-c4cncc(N5CCC(N)CC5)n4)c3c2)c1
Q = NC1CCN(c2cncc(-c3n[nH]c4ccc(-c5ccccn5)cc34)n2)CC1
// compare: P vs Q , metric IC50, want the smaller Output the label that corresponds to your choice.
P

---

# TGT: full length recombinant Pim-2 protein (Homo sapiens, UniProt Q9P1W9)
# Construct: by full length recombinant Pim-1, Pim-2, or Pim-3 protein; hexahistidine tag followed by a thrombin cleavage site (N); made in house; host or cells: Sf9 (baculovirus) or E. coli (pET28)
# Sequence (Q9P1W9 whole entry): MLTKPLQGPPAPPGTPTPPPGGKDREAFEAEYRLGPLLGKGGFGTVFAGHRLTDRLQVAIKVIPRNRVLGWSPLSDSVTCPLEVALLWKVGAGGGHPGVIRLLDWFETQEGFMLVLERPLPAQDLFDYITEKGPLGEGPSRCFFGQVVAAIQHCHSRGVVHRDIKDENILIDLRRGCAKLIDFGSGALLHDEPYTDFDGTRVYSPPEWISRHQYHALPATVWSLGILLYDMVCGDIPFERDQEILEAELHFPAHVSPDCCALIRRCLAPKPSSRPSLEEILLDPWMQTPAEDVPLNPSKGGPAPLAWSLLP
# ASSAY_METHOD_TEXT: Pim-2 enzyme assay (HTRF, phosphorylation of biotinylated-BAD (S112) peptide)
# Assay type: biochemical
# APPLIED_CONDITIONS: read-out: Pim2_IC50
ASSAY_READOUT: IC50 (µM)

Study these solved cases before continuing.
>>> result_number("CC1CCCCN1c1nc(-c2ccc3[nH]cc(-c4cncc(O[C@@H]5CCCNC5)n4)c3c2)cs1 (stereo partly shown) [Example 501]")
0.812
>>> result_number("CN(C)c1nc(-c2c[nH]c3ccc(-c4cncc(C5CC5)n4)cc23)cc(=O)[nH]1 [Example 527]")
0.079
>>> result_number("CC1CNCC(Oc2nc(O)cc(-c3n[nH]c4ccc(-c5c(F)cccc5F)cc34)n2)C1 (single isomer, unassigned) [Example 569]")
0.001
>>> result_number("c1cc(-c2ccc3[nH]cc(-c4cncc(O[C@@H]5CCCNC5)n4)c3c2)cc(-c2nnn[nH]2)c1 [Example 355]")
0.104
>>> result_number("Cn1nccc1-c1ccc2[nH]nc(-c3cncc(O[C@@H]4CCCNC4)n3)c2c1 [Example 375]")
0.243

A = COc1cncc(-c2n[nH]c3ccc(-c4cnn(C(C)C)c4)cc23)n1 [Example 388]
B = CN1CCOc2cc(-c3ccc4[nH]cc(-c5cncc(O[C@@H]6CCCNC6)n5)c4c3)ccc21 [Example 347]
C = CC1(Oc2cncc(-c3n[nH]c4ccc(-c5c(F)cccc5F)cc34)n2)CCCNC1 (stereo not shown) [Example 417]
D = Fc1ccnc(F)c1-c1ccc2[nH]nc(-c3cncc(O[C@H]4CNCCC45CC5)n3)c2c1 [Example 451]
E = COc1cc(-c2c[nH]c3ccc(-c4c(F)cccc4F)cc23)nc(N2CCC(N)CC2)n1 [Example 276]
Put the entries in order of IC50, starting with the largest number. Give me the labels in the order the question wants.
E, C, A, B, D
(E: 0.929 µM, C: 0.335 µM, A: 0.124 µM, B: 0.016 µM, D: 0.009 µM)

---

# TGT: full length recombinant Pim-1 protein (Homo sapiens, UniProt P11309)
# Construct: by full length recombinant Pim-1, Pim-2, or Pim-3 protein; hexahistidine tag followed by a thrombin cleavage site (N); made in house; host or cells: Sf9 (baculovirus) or E. coli (pET28)
# ASSAY_METHOD_TEXT: Pim-1 enzyme assay (HTRF, phosphorylation of biotinylated-BAD (S112) peptide)
# Format: biochemical
# APPLIED_CONDITIONS: read-out: Pim_1_IC50
ASSAY_READOUT: IC50 (nM)

>>> result_number("COC(=O)c1ccc2[nH]nc(-c3cncc(O[C@H]4CNCCC45CC5)n3)c2c1")
9

a = N#Cc1ccc(-c2ccc3[nH]nc(-c4cncc(O[C@H]5CNCCC56CC6)n4)c3c2)c(F)c1
b = NC1CCN(c2cncc(-c3c[nH]c4ccc(-c5cncc(NC6CC6)n5)cc34)n2)CC1
c = Cc1nccn1-c1cccc(-c2ccc3[nH]cc(-c4cncc(O[C@@H]5CCCNC5)n4)c3c2)n1
d = CC(C)Oc1cncc(-c2ccc3[nH]cc(-c4nnc(N[C@@H]5CCNC5)o4)c3c2)n1
Ordering: ascending IC50. Give me the labels in the order the question wants.
b, a, c, d

---

# TGT: full length recombinant Pim-1 protein (Homo sapiens, UniProt P11309)
# Construct: by full length recombinant Pim-1, Pim-2, or Pim-3 protein; hexahistidine tag followed by a thrombin cleavage site (N); made in house; host or cells: Sf9 (baculovirus) or E. coli (pET28)
# ASSAY_METHOD_TEXT: Pim-1 enzyme assay (HTRF, phosphorylation of biotinylated-BAD (S112) peptide)
# Assay type: biochemical
# APPLIED_CONDITIONS: enzyme assay, Pim-1; read-out: Pim_1_IC50
# Protocol: These cDNAs were used as templates in PCR reactions to produce full-length DNA clones of the PIMs. […] This step was repeated 3× and the resin was transferred to a 2.5 cm glass column. […] Fractions were analyzed by SDS-PAGE and those containing the protein of interest were pooled and concentrated. […] The final buffer conditions were as follows: 60 mM Hepes, pH 7.0, 0.05% BSA, 2 mM DTT. […] For each plate, percent of control (POC) values were calculated for each well. […]
ASSAY_READOUT: IC50 (nM)

Study these solved cases before continuing.
>>> result_number("NC1CCN(c2cncc(-c3n[nH]c4ccc(N5CCOCC5)cc34)n2)CC1 [Example 89]")
28
>>> result_number("Fc1cccc(F)c1-c1ccc2[nH]nc(-c3cncc(O[C@@H]4CNCC[C@H]4F)n3)c2c1 (single isomer, unassigned) [Example 18]")
75

a = CCCNC(=O)c1ccc(F)c(-c2ccc3[nH]nc(-c4cncc(N5CCC(N)CC5)n4)c3c2)c1 [Example 39]
b = O[C@H]1CCCN(c2cncc(-c3n[nH]c4ccc(-c5c(F)cccc5F)cc34)n2)C1 [Example 163]
Returns: the argument ( a or b ) having the larger IC50. Output the label that corresponds to your choice.
b
(b: 58 nM, a: 7 nM)

P = Cc1c(N)cccc1-c1ccc2[nH]nc(-c3cncc(N4CCC(N)CC4)n3)c2c1 [Example 103]
Q = CC(C)Oc1cncc(-c2ccc3[nH]cc(-c4cncc(O[C@@H]5CCCNC5)n4)c3c2)n1 [Example 213]
Returns: the argument ( P or Q ) having the larger IC50. Output the label that corresponds to your choice.
P
(P: 34 nM, Q: 22 nM)
